Test system: HCV replicon, genotype-1a variant with glutamine 30 changed to glutamate in the NS5A protein
Assay: microbe, parasite or virus in culture
Type: cell-based, HCV genotype 1a
Conditions: HCV replicon genotype 1a Q30E (Q→E) variant; test compound titrated with an NS5A-targeting compound (BMS-790052 fixed at 200 nM); ranking of synergist activity
Documented Fold-Synergistic 1a (Q30E) across a set of compounds
recorded-metric: Fold-Synergistic 1a (Q30E)

>>> test_value("CC(C)[C@H](NC(=O)C(C)(C)C)c1nc(-c2ccc(-c3ccc(-c4c[nH]c([C@@H](NC(=O)C(C)(C)C)C(C)C)n4)cc3F)cc2)c[nH]1 [Compound N-100]")
">100 fold"
>>> test_value("CCC(C)[C@H](NC(=O)[C@@H](NC(=O)OC)C(C)C)c1nc(-c2ccc(-c3ccc(-c4c[nH]c([C@@H](NC(=O)[C@@H](NC(=O)OC)C(C)C)C(C)CC)n4)cc3)cc2)c[nH]1 (stereo partly drawn) [Compound N-33]")
">10 fold"
>>> test_value("CC(C)CC(=O)N[C@@H](CC(C)(C)C)c1nc(-c2ccc(-c3ccc(-c4c[nH]c([C@H](CC(C)(C)C)NC(=O)CC(C)C)n4)cc3)cc2)c[nH]1 [Compound P-4]")
">10 fold"
